Entry source: patent US20100029657A1

molecular target: Flag/GST-tagged recombinant human B-Raf (Homo sapiens); construct: Flag; GST; made in house; host or cells: Sf9 insect cells (B-Raf); E. coli (MEK1-GST); assay: B-Raf kinase assay (phosphorylation of GST-MEK1, phospho-MEK1 antibody/Europium detection); format: biochemical; details: B-Raf IC50 Data for compounds of Formula A; read-out: Mean IC50
Sequence (P15056 whole entry): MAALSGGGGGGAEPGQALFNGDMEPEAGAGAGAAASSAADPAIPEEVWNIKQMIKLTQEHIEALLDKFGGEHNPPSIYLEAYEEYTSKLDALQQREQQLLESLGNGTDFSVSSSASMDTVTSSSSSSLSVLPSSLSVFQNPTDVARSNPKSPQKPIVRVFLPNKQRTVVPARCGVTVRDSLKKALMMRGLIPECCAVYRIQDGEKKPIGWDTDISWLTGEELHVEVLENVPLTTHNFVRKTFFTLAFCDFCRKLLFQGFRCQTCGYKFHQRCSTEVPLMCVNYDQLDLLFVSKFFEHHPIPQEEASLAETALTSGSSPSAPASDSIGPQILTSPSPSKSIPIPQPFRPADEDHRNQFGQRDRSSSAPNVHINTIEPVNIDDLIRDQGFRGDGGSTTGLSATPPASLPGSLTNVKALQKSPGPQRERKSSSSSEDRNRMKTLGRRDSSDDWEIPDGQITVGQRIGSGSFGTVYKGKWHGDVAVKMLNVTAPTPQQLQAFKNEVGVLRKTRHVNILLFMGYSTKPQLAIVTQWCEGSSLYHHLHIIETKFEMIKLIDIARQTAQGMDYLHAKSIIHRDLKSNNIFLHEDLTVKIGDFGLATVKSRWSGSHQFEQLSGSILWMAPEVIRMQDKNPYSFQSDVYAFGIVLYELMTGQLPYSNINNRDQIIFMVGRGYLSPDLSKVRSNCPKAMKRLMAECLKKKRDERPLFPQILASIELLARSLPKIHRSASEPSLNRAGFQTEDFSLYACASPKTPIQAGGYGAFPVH
pIC50: −log10 of the molar value.
Some molecules, each annotated with its measured pIC50.

{"Molecule": "CN1C[C@@H]2CC[C@H]1CN2c1ccc(-c2ccnc3c(-c4cccc5[nH]ncc45)c(-c4ccncc4)nn23)cc1", "Relation": "=", "pIC50": 9.15}
{"Molecule": "CC(C)(C)OC(=O)N1C[C@@H]2C[C@H]1CN2c1ccc(-c2ccnc3c(-c4ccc(Cl)c5[nH]ncc45)c(-c4ccncc4)nn23)cc1", "Relation": "=", "pIC50": 7.35}
{"Molecule": "CN(C)c1cc(N2C[C@@H]3C[C@H]2CN3)ccc1-c1ccnc2c(-c3cccc4[nH]ncc34)c(-c3ccncc3)nn12", "Relation": "=", "pIC50": 8.20}
{"Molecule": "Oc1cccc(-c2c(-c3ccncc3)nn3c(-c4ccc(N[C@@H]5CN6CCC5CC6)nc4)ccnc23)c1", "Relation": "=", "pIC50": 8.70}
{"Molecule": "CCN1C2CCC1CC(c1ccnc3c(-c4ccc(N)cc4)c(-c4ccncc4)nn13)C2 (stereo not shown)", "Relation": "<", "pIC50": 6.00}
{"Molecule": "Clc1ccc(-c2c(-c3ccncc3)nn3c(-c4ccc(N5C[C@@H]6C[C@H]5CN6)cc4)ccnc23)c2cn[nH]c12", "Relation": "=", "pIC50": 7.50}
{"Molecule": "Fc1cc(CN2C[C@@H]3C[C@H]2CN3)ccc1-c1ccnc2c(-c3cccc4[nH]ncc34)c(-c3ccncc3)nn12", "Relation": "=", "pIC50": 9.46}

====

target: Flag/GST-tagged recombinant human B-Raf (Homo sapiens); construct: Flag; GST; made in house; host or cells: Sf9 insect cells (B-Raf); E. coli (MEK1-GST); experiment: B-Raf kinase assay (phosphorylation of GST-MEK1, phospho-MEK1 antibody/Europium detection); assay type: biochemical; details: B-Raf IC50 Data for compounds of Formula A; read-out: Mean IC50
pIC50: −log10 of the molar value. Counter-ions that a name gives are not always drawn.

{"Molecule": "N#CCN1C2CCC1CC(c1ccnc3c(-c4cccc5[nH]ncc45)c(-c4ccncc4)nn13)C2 (centres unmarked) [Example 117]", "Measurement Target": "Flag/GST-tagged recombinant human B-Raf (Homo sapiens)", "Relation": "=", "pIC50": 8.55}
{"Molecule": "C1=C(c2ccnc3c(-c4cccc5[nH]ncc45)c(-c4ccncc4)nn23)CCC2(C1)OCCO2 [Example 191]", "Measurement Target": "Flag/GST-tagged recombinant human B-Raf (Homo sapiens)", "Relation": "=", "pIC50": 7.25}
{"Molecule": "Oc1cccc(-c2c(-c3ccncc3)nn3c(-c4ccc(N5C[C@@H]6C[C@H]5CN6)cc4)ccnc23)c1 [Example 29]", "Measurement Target": "Flag/GST-tagged recombinant human B-Raf (Homo sapiens)", "Relation": "=", "pIC50": 9.30}
{"Molecule": "CN1C[C@@H]2C[C@H]1CN2c1ccc(-c2ccnc3c(-c4ccc(F)c5[nH]ncc45)c(-c4ccncc4)nn23)c(F)c1 [Example 107]", "Measurement Target": "Flag/GST-tagged recombinant human B-Raf (Homo sapiens)", "Relation": ">", "pIC50": 9.52}
{"Molecule": "Oc1cccc(-c2c(-c3ccncc3)nn3c(-c4ccc(NCC56CCN(CC5)CC6)nc4)ccnc23)c1 [Example 1]", "Measurement Target": "Flag/GST-tagged recombinant human B-Raf (Homo sapiens)", "Relation": "=", "pIC50": 8.70}
{"Molecule": "CN1C[C@@H]2C[C@H]1CN2c1ccc(-c2ccnc3c(-c4ccc(F)c5[nH]ncc45)c(-c4ccncc4)nn23)cn1 [Example 42]", "Measurement Target": "Flag/GST-tagged recombinant human B-Raf (Homo sapiens)", "Relation": "=", "pIC50": 9.40}
{"Molecule": "CN1C[C@@H]2C[C@H]1CN2c1ccc(-c2ccnc3c(-c4cccc5[nH]ncc45)c(-c4ccncc4)nn23)cc1F [Example 188]", "Measurement Target": "Flag/GST-tagged recombinant human B-Raf (Homo sapiens)", "Relation": "=", "pIC50": 8.72}
{"Molecule": "CC(=O)N1C2CCC1CC(c1ccnc3c(-c4ccc(Cl)c(O)c4)c(-c4ccncc4)nn13)C2 (centres unmarked) [Example 13]", "Measurement Target": "Flag/GST-tagged recombinant human B-Raf (Homo sapiens)", "Relation": "=", "pIC50": 9.52}
{"Molecule": "c1cc(-c2c(-c3ccncc3)nn3c(-c4ccc(N5C[C@@H]6C[C@H]5CO6)nc4)ccnc23)c2cn[nH]c2c1 [Example 201]", "Measurement Target": "Flag/GST-tagged recombinant human B-Raf (Homo sapiens)", "Relation": "=", "pIC50": 8.08}
{"Molecule": "CCN1C2CCC1CC(c1ccnc3c(-c4cc(F)c(Cl)c5[nH]ncc45)c(-c4ccncc4)nn13)C2 (centres unmarked) [Example 82, acetate salt]", "Measurement Target": "Flag/GST-tagged recombinant human B-Raf (Homo sapiens)", "Relation": "=", "pIC50": 8.70}
{"Molecule": "CN1C2CCC1CN(c1ccc(-c3ccnc4c(-c5cccc(O)c5)c(-c5ccncc5)nn34)cc1)C2 [Example 25]", "Measurement Target": "Flag/GST-tagged recombinant human B-Raf (Homo sapiens)", "Relation": "=", "pIC50": 9.00}
{"Molecule": "OCCN1C2CCC1CC(c1ccnc3c(-c4cccc5[nH]ncc45)c(-c4ccncc4)nn13)C2 (centres unmarked) [Example 112]", "Measurement Target": "Flag/GST-tagged recombinant human B-Raf (Homo sapiens)", "Relation": "=", "pIC50": 7.64}
{"Molecule": "CC(=O)N1C[C@@H]2C[C@H]1CN2c1ccc(-c2ccnc3c(-c4ccc(F)c(O)c4)c(-c4ccncc4)nn23)cc1 [Example 39]", "Measurement Target": "Flag/GST-tagged recombinant human B-Raf (Homo sapiens)", "Relation": "=", "pIC50": 9.30}
{"Molecule": "Fc1c(-c2ccnc3c(-c4cccc5[nH]ncc45)c(-c4ccncc4)nn23)ccc(N2C[C@@H]3C[C@H]2CN3)c1F [Example 162]", "Measurement Target": "Flag/GST-tagged recombinant human B-Raf (Homo sapiens)", "Relation": "=", "pIC50": 9.30}
